test system: SF-268; experiment: NCI tumour cell line growth inhibition, 48 h
Active and inactive are the calls of the source. Cut-off read from the data, not from the text of the source: active = GI50 up to about 1.1 µM and inactive = higher.
MEASURED_PROPERTY: GI50

Give its GI50 value. Item: CC1=C2O[C@]3(O)C=C2C(=C(O)C1=O)[C@@H]1O[C@H](CC[C@H](C)/C=C(\C)C[C@@H](C)C[C@@H]3C)[C@H](C)[C@H](O)[C@H]1C [KENDOMYCIN] 0.354 µM (active)

Give its GI50 value. Item: COc1ccc(/C=N/n2cnc3[nH]c(C)c(Cc4ccccc4)c3c2=N)cc1 72.9 µM (inactive)

Give its GI50 value. Item: C=C1CC(c2ccc(O)c(OC)c2)Oc2c(OC)cccc21 (centres undefined) 33 µM (inactive)

Give its GI50 value. Item: CCOC(=O)/C=C(/C(=O)OCC)n1ccc(=O)[nH]c1=O 15.6 µM (inactive)

Give its GI50 value. Item: COC1CC(OS(=O)(=O)c2ccc(C)cc2)C(OC(=O)c2ccccc2)C(C)O1 (centres undefined) > 100 µM (inactive)

Give its GI50 value. Item: C[C@H](CCC(=O)O)[C@H]1CC[C@H]2[C@@H]3[C@H](O)C[C@@H]4C[C@H](O)CC[C@]4(C)[C@H]3CC[C@]12C [CHENODIOL] 44.1 µM (inactive)

Give its GI50 value. Item: COc1cc(/C=C/c2ccc(C)cc2)cc(OC)c1OC 5.37 µM (inactive)

Give its GI50 value. Item: O=C(NCCS(=O)(=O)N1C(=O)C2CCCN2C(=O)[C@@H]1Cc1ccccc1)OCc1ccccc1 (some centres undefined) 45.6 µM (inactive)

Give its GI50 value. Item: COc1ccc(C2=Nc3ccccc3NC(=O)C2)cc1 23.4 µM (inactive)

---

system: LOX IMVI; assay: NCI tumour cell line growth inhibition, 48 h
Calls of active or inactive are those of the source. Cut-off read from the data, not from the text of the source: active = GI50 up to about 1.1 µM and inactive = higher.
MEASURED_PROPERTY: GI50

Give its GI50 value. Item: O=C(/C=C/c1c(O)nc2ccccc2c1O)CC(=O)C(=O)Nc1cccc(O)c1 > 100 µM (inactive)

Give its GI50 value. Item: Cc1c2cccc-2c(OCCO)cc2c1[nH]c1ccccc12 1.95 µM (inactive)

Give its GI50 value. Item: O=P(O)(O)CN1CCN(CP(=O)(O)O)CCN(CP(=O)(O)O)CCN(CP(=O)(O)O)CC1 > 100 µM (inactive)

Give its GI50 value. Item: Cc1ccc(/C=c2\cc3oc(=O)c4cccc(c4-3)c2=O)cc1 61.4 µM (inactive)

Give its GI50 value. Item: COc1ccc2[nH]cc(C=C3C(=O)NC(=S)NC3=O)c2c1 > 100 µM (inactive)

Give its GI50 value. Item: Cc1cc(C)nc(NC(=S)Nc2ccccc2Cl)c1 > 100 µM (inactive)

Give its GI50 value. Item: Cc1cc2nnc(C(N)=O)c(N)c2cc1C > 100 µM (inactive)

Give its GI50 value. Item: O=C(O)CSc1nnc(COc2ccc(Cl)cc2)n1-c1ccccc1 > 100 µM (inactive)

Give its GI50 value. Item: CC1=C2[C@@H](c3ccccc3)C3C=CC2(C=C3C(F)(F)F)N(C(=O)NC2CCCCC2)C1=O (stereo not given in full) 44 µM (inactive)

Give its GI50 value. Item: CN(C)c1ccc(/C=C(\NC(=O)c2ccccc2)C(=O)Nc2ccccc2C(=O)NCc2ccccc2)cc1 > 100 µM (inactive)
